Test system: S. aureus Mu50
assay details: microbe, parasite or virus in culture
Type: cell-based, Staphylococcus aureus
recorded conditions: Staphylococcus aureus, MU50, read-out: MIC (mg/L) S. aureus Mu50, Example 2, Table 12
readout name: MIC
The number alone won't do; follow it with the unit.

Solved cases (3 shown):
molecule | result
COc1ccc2c(=O)cc(-c3ccc(O)cc3)oc2c1 | 8 mg/L
C[C@H]1COc2c(N3CCN(C)CC3)c(F)cc3c(=O)c(C(=O)O)cn1c23 [Levofloxacin, levofloxacin, reference compound] | 8 mg/L
O.O=c1c(O)c(-c2ccc(O)cc2)oc2cc(O)cc(O)c12 [No. 4, 3,4′,5,7-Tetrahydroxyflavone Hydrate] | 8 mg/L

Alright, here's another molecule for you.
Lab note: measured MIC of COc1cc(-c2oc3c(OC)c(O)cc(O)c3c(=O)c2O)ccc1O was 32 mg/L

====

test system: GyrA(wt) + GyrB(wt) (Staphylococcus aureus, UniProt P20831)
Construct: made in house; host or cells: E. coli BL21(DE3)
assay details: DNA cleavage assay with GyrA(wt) and GyrB(wt)
Type: biochemical
recorded conditions: IC50 GyrA(wt) and GyrB(wt), value in μM
Excerpt: The gene sequence encoding the wild-type GyrA of Staphylococcus aureus (henceforth also referred to as “GyrA(wt)”) shown as SEQ ID NO: 1 was cloned into the plasmid pMAL-c2 (produced by New England Biolabs) (the resultant is henceforth also referred to as “pMAL-c2-gyrA”). […]
readout name: IC50

Lab note: measured IC50 of O=c1cc(-c2ccc(O)cc2)oc2cc(O)cc(O)c12 [No. 7, 4′,5,7-Trihydroxyflavone] was > 474 µM

====

test system: GyrA(wt) + GyrB(wt) (Staphylococcus aureus, UniProt P20831)
Construct: made in house; host or cells: E. coli BL21(DE3)
assay details: DNA cleavage assay with GyrA(wt) and GyrB(wt)
Type: biochemical
recorded conditions: IC50 (μg/mL) GyrA(wt) + GyrB(wt), Example 9, Table 18
readout name: IC50 (µM)
Lab book: enter the figure in µM, no units written.

The molecule COc1ccc2c(=O)cc(-c3ccc(O)c(OC)c3)oc2c1 [M-246] , when measured on GyrA(wt) + GyrB(wt) (Staphylococcus aureus, UniProt P20831), yielded IC50 of 53.6

Values from patent US20150322033A1
